- tested_system: estrogen receptor α (Homo sapiens (Human), UniProt P03372)
- Sequence (P03372 whole entry): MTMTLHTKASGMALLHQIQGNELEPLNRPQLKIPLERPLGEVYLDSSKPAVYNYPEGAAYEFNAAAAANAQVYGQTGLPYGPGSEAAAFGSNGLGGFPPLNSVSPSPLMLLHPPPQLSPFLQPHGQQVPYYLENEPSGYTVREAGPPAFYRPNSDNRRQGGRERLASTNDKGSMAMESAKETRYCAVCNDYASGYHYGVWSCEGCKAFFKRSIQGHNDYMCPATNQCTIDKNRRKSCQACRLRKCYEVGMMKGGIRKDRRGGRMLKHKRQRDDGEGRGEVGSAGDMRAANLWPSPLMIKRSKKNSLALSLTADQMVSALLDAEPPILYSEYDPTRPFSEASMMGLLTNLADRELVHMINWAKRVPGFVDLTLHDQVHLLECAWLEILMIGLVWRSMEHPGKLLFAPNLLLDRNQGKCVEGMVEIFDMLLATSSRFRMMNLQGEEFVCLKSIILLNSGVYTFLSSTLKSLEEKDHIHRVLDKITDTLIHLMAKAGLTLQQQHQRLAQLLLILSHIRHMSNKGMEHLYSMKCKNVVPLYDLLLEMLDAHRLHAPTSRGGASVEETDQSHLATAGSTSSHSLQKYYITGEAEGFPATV
- procedure_text: Estrogen receptor binding assay, ERα
- test_conditions: relative binding affinity (estradiol: 100%)
Assign RBA ERα [%] to each entry below.
Write the number in % without appending the unit.

Query: // map Oc1cccc(-c2ccc3c(-c4ccccc4)c(O)ccc3c2)c1 [Compound 56, 6-(3-Hydroxyphenyl)-1-phenyl-2-naphthol] to recorded RBA ERα [%] (system: estrogen receptor α (Homo sapiens (Human), UniProt P03372))
Reply: 0.055

Query: Recorded RBA ERα [%] for Oc1cccc(-c2ccc3cc(O)ccc3c2)c1 [Compound 19, 6-(3-Hydroxyphenyl)-2-naphthol] with estrogen receptor α (Homo sapiens (Human), UniProt P03372), please?
Reply: 0.23

Query: Param readout = RBA ERα [%]; param system = estrogen receptor α (Homo sapiens (Human), UniProt P03372); param query = Oc1cccc(-c2ccc3c(-c4cccc(O)c4)c(O)ccc3c2)c1 [Compound 57, 1,6-Bis(3-hydroxyphenyl)naphthalene-2-ol] ; response: value
Reply: 0.0013

Query: Give RBA ERα [%] (estrogen receptor α (Homo sapiens (Human), UniProt P03372)) of the following compound: "O=S(=O)(Nc1nccs1)c1cccc(-c2c(O)ccc3cc(-c4cccc(O)c4)ccc23)c1"
Reply: 0.015

Query: What is its RBA ERα [%] for estrogen receptor α (Homo sapiens (Human), UniProt P03372)? Entry: "Oc1cccc(-c2ccc3c(Br)c(O)ccc3c2)c1"
Reply: 0.081

Query: Item "Oc1cccc(-c2ccc3c(-c4ccncc4)c(O)ccc3c2)c1" with estrogen receptor α (Homo sapiens (Human), UniProt P03372) - RBA ERα [%]?
Reply: 0.0068

Source of measurements: patent US8546392B2
